- Tested on: SiHa
- PROTOCOL SUMMARY: Antiproliferative activity against human SiHa cells assessed as inhibition of cell growth incubated for 72 hrs by MTT assay
- Type: functional, cell-based
OBSERVED PROPERTY: pIC50
Please report pIC50 as the negative decimal logarithm of the molar concentration, giving only the number.

Which pIC50 value is on record for C#Cc1c(C)c(O)cc2c1CCc1c-2ccc(O)c1C ?
4.60

====

- Tested on: Staphylococcus aureus
- PROTOCOL SUMMARY: Antibacterial activity against methicillin-susceptible Staphylococcus aureus ATCC 6538 assessed as inhibition of bacterial growth incubated for 16 hrs
- Assay type: functional
OBSERVED PROPERTY: MIC (µM)
Unit µM implied. Number only.

C=Cc1c(C)c(O)cc2c1ccc1c(C)c(Oc3c(O)c(C)c(C=C)c4ccc5c(C)c(O)ccc5c34)ccc12 ... 122
C=Cc1c(C)cc(O)c2c1CCc1c-2cc(-c2c(O)c(C)c(C=C)c3ccc4c(C)c(O)ccc4c23)c(O)c1C ... 60.5
C=Cc1c(C)c(O)cc2c1ccc1c(C)c(O)ccc12 ... 15.1

With those in mind, consider the next compound.
Which MIC value is on record for C#Cc1c(C)c(O)cc2c1CCc1c-2ccc(O)c1C ?
121

====

- Tested on: Staphylococcus aureus
- PROTOCOL SUMMARY: Antibacterial activity against methicillin-susceptible Staphylococcus aureus ATCC 6538 assessed as inhibition of bacterial growth incubated for 16 hrs
- Format: functional
OBSERVED PROPERTY: MIC (µM)
Unit µM implied. Number only.

Here are 4 compounds together with their reported answers.
C#Cc1c(C)c(O)cc2c1ccc1c(C)c(O)ccc12 ... 15.3
C=Cc1c(CO)c(O)cc2c1ccc1c(C)c(O)ccc12 ... 114
C=Cc1c(C)c(O)cc2c1CCc1c-2ccc(O)c1C ... 481
C=Cc1c(C)c(O)c(-c2cc3c(c(C)c2O)CCc2c(C=O)c(C)cc(O)c2-3)c2c1ccc1c(C)c(O)ccc12 ... 60.5

With those in mind, consider the next compound.
Which MIC value is on record for C=Cc1c(C)c(Oc2c(O)c(C)c(C=C)c3ccc4c(C)c(O)ccc4c23)cc2c1ccc1c(C)c(O)ccc12 ?
60.5

====

- Tested on: Staphylococcus aureus
- PROTOCOL SUMMARY: Antibacterial activity against methicillin-susceptible Staphylococcus aureus ATCC 6538 assessed as inhibition of bacterial growth incubated for 16 hrs
- Format: functional
OBSERVED PROPERTY: MIC (µM)
Unit µM implied. Number only.

Which MIC value is on record for C=Cc1c(CO)cc(O)c2c1CCc1c-2ccc(O)c1C ?
114

Which MIC value is on record for C=Cc1c(C)c(O)cc2c3c(ccc12)C(C)(O)C(=O)C=C3 (stereo unspecified) ?
229

Which MIC value is on record for C=Cc1c(COC)c(O)cc2c1CCc1c-2ccc(O)c1C ?
413

Which MIC value is on record for C=CC1=C(C)C(=O)C=C2c3ccc(O)c(C)c3CC[C@@]21O ?
56.8

Which MIC value is on record for O=C(O)c1cn(C2CC2)c2cc(N3CCNCC3)c(F)cc2c1=O ?
0.37

Which MIC value is on record for C#Cc1c(CO)c(O)cc2c1ccc1c(C)c(O)ccc12 ?
57.5

====

- Test system: Staphylococcus aureus
- PROTOCOL SUMMARY: Antibacterial activity against methicillin-susceptible Staphylococcus aureus ATCC 6538 assessed as inhibition of bacterial growth incubated for 16 hrs
- Format: functional
OBSERVED PROPERTY: MIC (µM)
Unit µM implied. Number only.

Here are 4 compounds together with their reported answers.
C#Cc1c(CO)c(O)cc2c1CCc1c-2ccc(O)c1C ... 57.1
C=Cc1c(C)cc(O)c2c1CCc1c-2ccc(O)c1C ... 30
CC(=O)c1c(C)c(O)cc2c1ccc1c(C)c(O)ccc12 ... 457
C=Cc1c(COC)c(O)cc2c1ccc1c(C)c(O)ccc12 ... 218

Which MIC value is on record for C=Cc1c(C)c(O)cc2c1CCc1c-2cc(-c2cc3c(c(C)c2O)CCc2c-3cc(O)c(C)c2C=C)c(O)c1C ?
60.5
